TARGET_UNDER_TEST: T1, 4H568-bN
T1 chain: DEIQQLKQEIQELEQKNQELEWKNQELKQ
ASSAY_EXPLANATION: two-hybrid library CCNG1;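 also: natural log of median RNA to DNA barcode read ratio; higher means stronger binding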
MEASURED_PARAMETER: interaction score
Numbers only.

{"BINDER": "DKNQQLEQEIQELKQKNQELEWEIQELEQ [4H3185-bN]", "MEASURED_PARAMETER": "interaction score", "REPORTED_RESULT": -2.82}
{"BINDER": "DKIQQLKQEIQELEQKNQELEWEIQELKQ [4H2610-bN]", "MEASURED_PARAMETER": "interaction score", "REPORTED_RESULT": -0.762}
{"BINDER": "DEIQQLKQEIQELEQKNQELEWKNQELKQ [4H568-bN]", "MEASURED_PARAMETER": "interaction score", "REPORTED_RESULT": 0.761}
{"BINDER": "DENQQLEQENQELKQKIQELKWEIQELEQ [4H1257-bN]", "MEASURED_PARAMETER": "interaction score", "REPORTED_RESULT": -1.28}
{"BINDER": "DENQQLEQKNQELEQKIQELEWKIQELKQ [4H1446-bN]", "MEASURED_PARAMETER": "interaction score", "REPORTED_RESULT": -0.0813}
{"BINDER": "DKNQQLKQKNQELEQKIQELEWEIQELEQ [4H4001-bN]", "MEASURED_PARAMETER": "interaction score", "REPORTED_RESULT": -2.33}

Moving on to the next binder.
interaction score reading for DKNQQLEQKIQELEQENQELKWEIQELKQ [4H3354-bN] : -0.364
